Listing of recorded pIC50 by entry.
test system: Caco-2; test: MTT assay; format: cell-based, human; conditions: Homo sapiens, Caco-2, 72 h
pIC50: −log10 of the molar value.

{"molecule": "COc1cc([C@@H]2c3cc4c(cc3[C@@H](O[C@@H]3O[C@@H]5CO[C@@H](C)O[C@H]5[C@H](O)[C@H]3O)[C@H]3COC(=O)[C@H]23)OCO4)cc(OC)c1O [etoposide]", "pIC50": 4.76}
{"molecule": "O=Cc1ccc(OCc2cn(-c3ccc(Cl)c(Cl)c3)nn2)cc1O", "pIC50": 4.93}

====

Listing of recorded IC50 by entry.
system: HEK-293; test: MTT assay; format: cell-based, human; conditions: Homo sapiens, HEK293; HEK-293, 24 h

{"molecule": "O=Cc1ccc(OCc2cn(-c3ccc(Cl)c(Cl)c3)nn2)cc1O", "unit-abbreviation": "µM", "IC50": 44}
{"molecule": "COc1cc([C@@H]2c3cc4c(cc3[C@@H](O[C@@H]3O[C@@H]5CO[C@@H](C)O[C@H]5[C@H](O)[C@H]3O)[C@H]3COC(=O)[C@H]23)OCO4)cc(OC)c1O [etoposide]", "unit-abbreviation": "µM", "IC50": 110}
